Exercise: state measured % fluorescent cells increase for each of the molecules provided.
# experiment.notes: compound fluorescence in GFP channel, mTEFS cells – imaging, mTEFS fibroblasts, cherry-pick, artefact control for X-chromosome reactivation project, dose response (AID 743396);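 note: raw share of Hoechst-counted cells scored GFP positive without control normalization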
# measurement.setup: mTEFS fibroblasts autofluorescence, GFP-channel imaging, 3 days; at 19.5 µM (top of the series); cells pretreated with 5-aza-dC
Field format: number, assumed %, no unit text.

Record summary for O=c1c2ccccc2nnn1Cc1ccc2ccccc2c1 : reported % fluorescent cells increase = 0.015

Entry CCOC(=O)Cc1c(C)[nH]n(-c2ccccc2)c1=O ; % fluorescent cells increase = 0.015

Form: molecule = CCOC(=O)C1CCN(C(=O)c2ccc(NS(=O)(=O)c3ccc(F)cc3C)cc2)CC1 ; % fluorescent cells increase = 0

Entry Cc1cccc(-c2ccc([C@@H]3[C@@H](CO)N4CCCCN(S(=O)(=O)c5ccccc5F)C[C@H]34)cc2)c1 — recorded % fluorescent cells increase = 8.13

Just so you know, measured % fluorescent cells increase for Oc1ccc(Br)cc1C=Nc1ccc2c3c(cccc13)CC2 came out at 3.42

The molecule identified as COc1ccc(-c2nnc(NC(=O)c3ccc(F)cc3)o2)cc1 registered its % fluorescent cells increase at 0

Form: molecule = CCOC(=O)N1CCN(Cc2cc(Cl)c3cccnc3c2O)CC1 ; % fluorescent cells increase = 0

Briefly, % fluorescent cells increase measured for CCOC(=O)c1sc2nc(CSc3ccccc3)[nH]c(=O)c2c1C : 0.048

Recorded result, CCN1CCN(c2cc3nc(C)n(Cc4ccccc4)c(=O)c3cc2NC(=O)c2ccccc2F)CC1 , % fluorescent cells increase: 0

Reported % fluorescent cells increase for O=C(CCn1nc(-c2ccc(Cl)cc2)c2ccccc2c1=O)NN1CCOCC1 was 0.116
